Value source: patent US11242350B2

- measured_on: RORγt (Homo sapiens (Human))
- Sequence (P51449 269-508): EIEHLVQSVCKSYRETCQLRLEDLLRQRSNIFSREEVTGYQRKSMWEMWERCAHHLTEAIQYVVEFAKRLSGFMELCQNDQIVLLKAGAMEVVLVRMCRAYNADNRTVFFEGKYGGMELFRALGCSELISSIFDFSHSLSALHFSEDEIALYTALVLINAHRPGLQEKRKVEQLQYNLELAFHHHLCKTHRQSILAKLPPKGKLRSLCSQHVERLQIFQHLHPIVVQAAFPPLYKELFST
- assay_protocol: Gal4 ligand binding assay (RORγt Gal fusion luciferase reporter assay in HEK293T cells)
- condition_set: RORγt inverse agonists in RORγt Gal fusion assay
For each of the molecules below, state its IC50.

Give the measured IC50 of CC(C)c1c(F)c(CN2CCC3(C2)CN(S(C)(=O)=O)C3)cc(F)c1-c1ccc(C(O)(C(F)(F)F)C(F)(F)F)cc1 [Example 74] .
50 to 250 nM

# input molecule: CCc1cc(CN2CC3(C2)CN(S(C)(=O)=O)C3)cnc1-c1ccc(C(O)(C(F)(F)F)C(F)(F)F)cc1C [Example 62] ; wanted: its IC50
50 to 250 nM

Requested read-out: IC50. Entry: C=C(C)c1cc(CN2CC3(C2)CN(S(C)(=O)=O)C3)ccc1-c1ccc(C(O)(C(F)(F)F)C(F)(F)F)cc1 [Example 44]
< 50 nM

Requested read-out: IC50. Entry: CC(C)c1c(-c2ccc(C(O)(C(F)(F)F)C(F)(F)F)cc2)cc(F)c(CN2CC3(C2)CN(S(C)(=O)=O)C3)c1F [Example 8]
< 50 nM

Can you share its IC50? I mean this molecule: CCc1cc(CN2CC3(CCS(=O)(=O)CC3)C2)ccc1-c1ccc(C(O)(C(F)(F)F)C(F)(F)F)cc1 [Example 3]
< 50 nM

For the molecule shown here, Cc1cc(C(O)(C(F)(F)F)C(F)(F)F)ccc1-c1cc(F)c(CN2CC3(C2)CN(S(C)(=O)=O)C3)cc1C(C)C [Example 79] , give the reported IC50.
< 50 nM

Bench note: what IC50 did CC(=O)N1CC2(CN(Cc3ccc(-c4ccc(C(O)(C(F)(F)F)C(F)(F)F)cc4)c(C)c3)C2)C1 [Example 49] show?
> 250 nM

Can you look up the measured IC50 of CCc1c(-c2ccc(C(O)(C(F)(F)F)C(F)(F)F)cc2)ccc(CN2CC3(C2)CN(S(C)(=O)=O)C3)c1F [Example 37] for me?
< 50 nM

# get_value(readout='IC50', item= CCc1cc(CN2CC3(C2)CN(S(C)(=O)=O)C3)ccc1-c1ccc(C(O)(C(F)(F)F)C(F)(F)F)cc1C#N [Example 65] )
< 50 nM

Need IC50, item CCc1cc(CN2CCCC3(C2)CN(S(C)(=O)=O)C3)ccc1-c1ccc(C(O)(C(F)(F)F)C(F)(F)F)cc1 [Example 5]
< 50 nM

Query (molecule): Cc1cc(C(O)(C(F)(F)F)C(F)(F)F)ccc1-c1cccc(N2CC3(C2)CN(S(C)(=O)=O)C3)c1C [Example 66] ; field requested: IC50
50 to 250 nM

For the molecule Cc1cc(CN2CC3(CN(Cc4ccncc4)C3)C2)ccc1-c1ccc(C(O)(C(F)(F)F)C(F)(F)F)cc1 [Example 51] , what IC50 is on record?
> 250 nM

Would you kindly share the measured IC50 for CCc1cc(CN2CC3(C2)CN(S(=O)(=O)CC)C3)ccc1-c1ccc(C(O)(C(F)(F)F)C(F)(F)F)cc1 [Example 22] ?
50 to 250 nM

What value of measured IC50 is listed for Cc1cc(C(O)(C(F)(F)F)C(F)(F)F)ccc1-c1ccc(CN2CC3(C2)CS(=O)(=O)C3)cc1C(C)C [Example 12] ?
50 to 250 nM

State the recorded IC50 for this entry: CCc1cc(CN2CC3(C2)CN(S(C)(=O)=O)C3)ccc1-c1ccc(C(O)(C(F)(F)F)C(F)(F)F)cn1 [Example 63]
50 to 250 nM

Fill blank: measured IC50 of the molecule CCc1cc(CN2CCC3(C2)CS(=O)(=O)C3)ccc1-c1ccc(C(O)(C(F)(F)F)C(F)(F)F)cc1 [Example 17] is ____.
50 to 250 nM

For the molecule shown here, CCc1cc(CN2CC3(C2)CN(S(C)(=O)=O)C3)c(F)cc1-c1ccc(C(O)(C(F)(F)F)C(F)(F)F)cc1F [Example 82] , give the reported IC50.
< 50 nM

State the recorded IC50 for this entry: CCc1cc(CN2CC3(CCN(S(C)(=O)=O)CC3)C2)ccc1-c1ccc(C(O)(C(F)(F)F)C(F)(F)F)cc1 [Example 33]
50 to 250 nM

For CCc1cc(CN2CC3(C2)CN(S(C)(=O)=O)C3)cc(F)c1-c1ccc(C(O)(C(F)(F)F)C(F)(F)F)cc1 [Example 35] , what is its reported IC50?
< 50 nM

Any idea what its IC50 is? The molecule is CC(C)c1cc(CN2CC3(C2)CN(S(C)(=O)=O)C3)c(F)c(F)c1-c1ccc(C(O)(C(F)(F)F)C(F)(F)F)cc1 [Example 14]
< 50 nM

I have this molecule here, CCC(C)c1cc(CN2CC3(C2)CN(S(C)(=O)=O)C3)ccc1-c1ccc(C(O)(C(F)(F)F)C(F)(F)F)cc1 (stereo not shown) [Example 13] , and I need its recorded IC50.
< 50 nM

Endpoint output: IC50 of CCc1cc(CN2CCC3(C2)CS(=O)(=O)C3)ccc1-c1ccc(C(O)(C(F)(F)F)C(F)(F)F)cc1C [Example 16] . Value?
< 50 nM

###

- measured_on: RORγt (Homo sapiens (Human))
- assay_protocol: Gal4 ligand binding assay (RORγt Gal fusion luciferase reporter assay in HEK293T cells)
- condition_set: RORγt inverse agonists in RORγt Gal fusion assay
Answer each item with its documented IC50.

What does the record list as IC50 for CCc1cc(CN2CC3(CCS(=O)(=O)C3)C2)ccc1-c1ccc(C(O)(C(F)(F)F)C(F)(F)F)cc1 [Example 24] ?
50 to 250 nM

Quick check: IC50 of CCc1cc(CN2CC3(CC[S+]([O-])C3)C2)ccc1-c1ccc(C(O)(C(F)(F)F)C(F)(F)F)cc1 (centres unmarked) [Example 25] ?
> 250 nM

Consider the compound CCc1cc(CN2CC3(CCCN(S(C)(=O)=O)C3)C2)ccc1-c1ccc(C(O)(C(F)(F)F)C(F)(F)F)cc1 [Example 19] and give its measured IC50.
50 to 250 nM

// query IC50 value for entry CCc1cc(CN2CC3(C2)CN(S(C)(=O)=O)C3)cnc1-c1ccc(C(O)(C(F)(F)F)C(F)(F)F)cc1 [Example 52]
50 to 250 nM

Dear colleague, I am looking for the recorded IC50 of the following compound: CCc1cc(CN2CC3(C2)CN(S(C)(=O)=O)C3)c(F)cc1-c1ccc(C(O)(C(F)(F)F)C(F)(F)F)cc1 [Example 36]
< 50 nM

Which IC50 reading was recorded for the compound CCc1cc(C(O)(C(F)(F)F)C(F)(F)F)ccc1-c1c(F)cc(CN2CC3(C2)CN(S(C)(=O)=O)C3)c(F)c1C1CC1 [Example 90] ?
< 50 nM

What measured IC50 goes with CCc1cc(CN2CC3(C2)CN(C(C)=O)C3)ccc1-c1ccc(C(O)(C(F)(F)F)C(F)(F)F)cc1 [Example 48] ?
> 250 nM

Record request: IC50 value, item Cc1cc(CN2CC3(C2)CN(S(C)(=O)=O)C3)ccc1-c1ccc(C(O)(C(F)(F)F)C(F)(F)F)cc1 [Example 50]
50 to 250 nM

Sample CC(C)(C)c1cc(CN2CC3(C2)CN(S(C)(=O)=O)C3)ccc1-c1ccc(C(O)(C(F)(F)F)C(F)(F)F)cc1 [Example 23] — what was its IC50?
< 50 nM

Find the recorded IC50 belonging to CC(C)c1cc(CN2CC3(C2)CN(S(C)(=O)=O)C3)ccc1-c1ccc(C(O)(C(F)(F)F)C(F)(F)F)cc1 [Example 43] and report it.
< 50 nM

Request the reported IC50 associated with CCc1cc(CN2CCC(S(C)(=O)=O)CC2)ccc1-c1ccc(C(O)(C(F)(F)F)C(F)(F)F)cc1 [Example 10]
< 50 nM
